# system-under-test: T1, TCR gamma/delta constant region (TRGDC) (human, UniProt P0CF51 1-173; B7Z8K6 1-153)
# T1 chain (looked up) 1: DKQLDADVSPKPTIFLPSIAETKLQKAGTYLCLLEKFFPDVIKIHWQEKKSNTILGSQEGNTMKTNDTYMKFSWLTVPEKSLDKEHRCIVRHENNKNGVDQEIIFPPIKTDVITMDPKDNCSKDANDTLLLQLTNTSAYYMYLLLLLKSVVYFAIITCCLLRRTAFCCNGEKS
# T1 chain (looked up) 2: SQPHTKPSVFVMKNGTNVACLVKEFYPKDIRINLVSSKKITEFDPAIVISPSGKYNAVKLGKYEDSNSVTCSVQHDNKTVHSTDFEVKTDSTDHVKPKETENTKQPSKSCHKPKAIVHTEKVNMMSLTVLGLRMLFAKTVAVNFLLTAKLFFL
# experimental-details: cell-based or functional assay
The reader will find reported CD25+ (Vg9+ cells), flow staining values listed item by item below.
Lab book: enter the figure in %, no units written.

Here is how some binders turned out for CD25+ (Vg9+ cells), flow staining.
Lookup: Item VG9B112 (antibody, human IgG1, kappa, V domains shown) VH: QVQLQQSGPGLVKPSQTLSLTCAISGDSVSSNSAAWNWIRQSPSRGLEWLGGTYYRSKWFNNYAVSVKSRITINPDTSTNQFSLQLNSVTPADTAVYYCARGEWGLRDAFDIWGQGTMVTVSS VL: DIQMTQSPSFLSASVGDRVIITCRASQGIHSYLAWYQQKPGKVPKLLIYVASTLQSGVPSRFSGSGSGTEFTLTISSLQPEDFATYYCQQLNSYPWTFGQGTKLEIKR has what recorded CD25+ (Vg9+ cells), flow staining?
Found: 23.4

Lookup: Item VG9B125 (antibody, human IgG1, kappa, V domains shown) VH: EVQLVESGGTLVQPGGSLRLSCAVSGFTFSSYDMNWVRQAPGKGLEWVSYISSSSTAKYYADSVKGRFTISRDNAKNSLYLQMNSLWDEDTAVYYCAREDIVVVTPILQHWGQGTTVTVSS VL: EIVMTQSPATLSLSPGERAILSCRASQSVSKDLAWYQQKPGQAPRLLIYDASNRATGIPARISGSGSGTDFTLTISSLEPEDFAVYYCQQRINWPLFTFGPGTKVEIKR has what recorded CD25+ (Vg9+ cells), flow staining?
Found: 24.8

Lookup: Item VG9B136 (antibody, human IgG1, kappa, V domains shown) VH: QVQLQQSGPGLVKPSQTLSLTCAISGDSVSSNRAAWNWIRQSPSKGLEWLGRTYYRSKWYNEYAASVKSRMSINPDTSKNQFSLQLNSVTPEDTALYYCARDLWELREACDIWGQGTMVTVSS VL: DIVMTQSPSFLSTFVGDRVTITCRASQGISSYLAWYQQKPGKVPKLLIYVASTLQSGVPSRFSGSGSGTEFTLTISSLQPEDFATYYCQQLNSYPFTFGPGTKVDIKR has what recorded CD25+ (Vg9+ cells), flow staining?
Found: 33.3

Lookup: Item VG9B369 (antibody, human IgG1, kappa, V domains shown) VH: EVQLLESGPTLVKPTQTLTLTCTFSGFSLSTIGVGVGWIRQPPGKALEWLSLIYWNDDKRYNPSLKSRLTITKDTSKNQVVLTMTNMDPVDTATYYCAHSHDWVHAFDIWGQGTMVTVSS VL: DIVMTQSPSSLSASVGDRVTITCQASQDISHYLNWYQQKPGKAPKFLIYDASNLDTGVPSRFSGSGSGTDFTFTISSLQPEDIATYYCQQYDNFPLTFGGGTKVEIKR has what recorded CD25+ (Vg9+ cells), flow staining?
Found: 27.1

Next:
Lookup: Item VG9B386 (antibody, human IgG1, kappa, V domains shown) VH: EVQLVESGGGLVKPGGSLRLSCAASGFTFSSYSMIWVRQAPGKGLEWVSSIGSSSTYIYYADSVRGRFTISRDNAKTSLYLQMNSLRAEDTAMYFCARDGETGGFDYWGQGILVTVSS VL: EIVMTQSPGTLSLSPGERATLSCRASQSISRSYLAWYQQKPGQPPRLLIYGPSNRATGIPDRFSASGSGTDFTLTNSRLEPEDFAVYYCQQYGSLPLTFGGGTKVEIKR has what recorded CD25+ (Vg9+ cells), flow staining?
Found: 29.7

Lookup: Item VG9B387 (antibody, human IgG1, lambda, V domains shown) VH: EVQLVESGAEVKKPGASVKVSCKASGFTFTGYYLQWVRQAPGQGLEWMGWINPNSGYTDYAQRFQDRVTMTRDTSINTAYMELSRLRSDDTAVYYCARLDDAFDVWGQGTMVTVSS VL: SYELTQDPAVSVALGQTVRITCQGDSLRNYYAIWYQQKPGQAPVLVIFGKNNRPSGIPDRFSGSSSGTTASLTITGTQAEDEADYYCNSRDSSGNHWVFGGGTKLTVLG has what recorded CD25+ (Vg9+ cells), flow staining?
Found: 24.7

Lookup: Item VG9B144 (antibody, human IgG1, lambda, V domains shown) VH: QVQLVQSGAEVKKPGASVKVSCKASGYTFTGYYMHWMRQAPGQGLEWMGWINPNSGATNKEQKFQGRVTMTRDTSISTAYMELSRLRSDDTAVYYCAREDDAFDVWGQGTMVTVSS VL: SSELTQDPAVSVALGQTVRITCQGDNLRNYYATWFQQKPGQAPVLVFFGKNNRPSGIPDRFSGSSSGDTASLTITGAQAEDEADYYCNSRDSSGNHVVFGGGTKLTVLG has what recorded CD25+ (Vg9+ cells), flow staining?
Found: 20.6
